pIC50: recorded values
# study.system: Delta(14)-sterol reductase (Zea mays, UniProt B4FS76)
# Sequence (B4FS76 whole entry): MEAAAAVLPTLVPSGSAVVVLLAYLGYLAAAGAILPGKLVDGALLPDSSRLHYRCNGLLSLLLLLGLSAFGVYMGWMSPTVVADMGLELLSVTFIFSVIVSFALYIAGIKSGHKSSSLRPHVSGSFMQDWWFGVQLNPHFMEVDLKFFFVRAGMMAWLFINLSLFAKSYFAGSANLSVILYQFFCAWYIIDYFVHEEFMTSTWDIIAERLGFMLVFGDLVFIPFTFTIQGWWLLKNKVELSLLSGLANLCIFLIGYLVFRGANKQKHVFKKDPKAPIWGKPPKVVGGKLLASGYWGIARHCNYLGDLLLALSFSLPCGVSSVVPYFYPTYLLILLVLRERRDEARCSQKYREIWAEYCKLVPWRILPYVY
# assay.overview: Inhibition of Zea mays (maize) microsomal delta 8,14-steroid 14-reductase using delta 8,14-cholestadienol as substrate after 90 min by GC analysis
Lab note — pIC50 values are minus log10 of concentrations in M.

Examples with answers:
*Q* What does the data say about its pIC50? Entry: C[C@@H]1[C@@H](O)CC[C@]2(C)CNCC[C@@H]12
*A* 5.35

*Q* What does the data say about its pIC50? Entry: Clc1ccccc1CNC[C@H]1CC[C@H](CNCc2ccccc2Cl)CC1
*A* 4.40

*Q* What does the data say about its pIC50? Entry: CC(Cc1ccc(C(C)(C)C)cc1)CN1CC[C@H]2[C@H](C)[C@@H](O)CC[C@]2(C)C1 (stereo not given in full)
*A* 7.15

*Q* What does the data say about its pIC50? Entry: CCCCCCCCCCCCN1CC[C@H]2[C@H](C)[C@@H](O)CC[C@]2(C)C1
*A* 7.05

*Q* What does the data say about its pIC50? Entry: C[C@@H]1[C@@H](O)CC[C@]2(C)CN(Cc3ccccc3)CC[C@@H]12
*A* 7.10

Further cases:
*Q* What does the data say about its pIC50? Entry: CC(Cc1ccc(C(C)(C)C)cc1)CN1C[C@@H](C)O[C@@H](C)C1 (stereo not given in full)
*A* 6.10

*Q* What does the data say about its pIC50? Entry: CC(Cc1ccc(C(C)(C)C)cc1)CN1CCCCC1 (stereo not given)
*A* 5.52

*Q* What does the data say about its pIC50? Entry: CC(C)CCCC(C)CCCC(C)N1CC[C@H]2[C@H](C)[C@@H](O)CC[C@]2(C)C1 (stereo not given in full)
*A* 6.52

*Q* What does the data say about its pIC50? Entry: CCCCCCCCCCCCCN1CC(C)OC(C)C1 (stereo not given)
*A* 4.60

*Q* What does the data say about its pIC50? Entry: C=C(CC[C@@H](C)[C@H]1CCN=C2C3=C(CC[C@@]21C)[C@@]1(C)CC[C@H](O)C[C@@H]1CC3)C(C)C
*A* 7.52

###

# study.system: Sterol-8,7-isomerase (Zea mays, UniProt Q2TU57)
# Sequence (Q2TU57 whole entry): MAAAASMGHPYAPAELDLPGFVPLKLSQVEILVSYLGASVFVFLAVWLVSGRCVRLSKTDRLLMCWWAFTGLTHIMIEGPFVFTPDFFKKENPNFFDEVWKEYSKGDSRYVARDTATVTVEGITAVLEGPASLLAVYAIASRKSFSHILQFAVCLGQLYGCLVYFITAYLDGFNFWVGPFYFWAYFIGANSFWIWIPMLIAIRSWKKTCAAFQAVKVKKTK
# assay.overview: Inhibition of Zea mays (maize) delta8,delta7-sterol isomerase
pIC50: recorded values
Lab note — pIC50 values are minus log10 of concentrations in M.

*Q* Please state recorded pIC50 (tested on Sterol-8,7-isomerase (Zea mays, UniProt Q2TU57)) of Clc1ccccc1CNC[C@H]1CC[C@H](CNCc2ccccc2Cl)CC1
*A* 6.30

*Q* Please state recorded pIC50 (tested on Sterol-8,7-isomerase (Zea mays, UniProt Q2TU57)) of CC(Cc1ccc(C(C)(C)C)cc1)CN1CCCCC1 (stereo not drawn)
*A* 7.10

*Q* Please state recorded pIC50 (tested on Sterol-8,7-isomerase (Zea mays, UniProt Q2TU57)) of C=C(CC[C@@H](C)[C@H]1CCN=C2C3=C(CC[C@@]21C)[C@@]1(C)CC[C@H](O)C[C@@H]1CC3)C(C)C
*A* 6.10

*Q* Please state recorded pIC50 (tested on Sterol-8,7-isomerase (Zea mays, UniProt Q2TU57)) of C[C@@H]1[C@@H](O)CC[C@]2(C)CN(Cc3ccccc3)CC[C@@H]12
*A* 6.89

*Q* Please state recorded pIC50 (tested on Sterol-8,7-isomerase (Zea mays, UniProt Q2TU57)) of C[C@@H]1[C@@H](O)CC[C@]2(C)CNCC[C@@H]12
*A* 5.00

*Q* Please state recorded pIC50 (tested on Sterol-8,7-isomerase (Zea mays, UniProt Q2TU57)) of CCCCCCCCCCCCCN1CC(C)OC(C)C1 (stereo not drawn)
*A* 6.40

*Q* Please state recorded pIC50 (tested on Sterol-8,7-isomerase (Zea mays, UniProt Q2TU57)) of CC(Cc1ccc(C(C)(C)C)cc1)CN1C[C@@H](C)O[C@@H](C)C1 (stereo partly drawn)
*A* 6.40

Consider now this further compound.
*Q* Please state recorded pIC50 (tested on Sterol-8,7-isomerase (Zea mays, UniProt Q2TU57)) of CC(C)CCCC(C)CCCC(C)N1CC[C@H]2[C@H](C)[C@@H](O)CC[C@]2(C)C1 (stereo partly drawn)
*A* 6.70
